The values you see were collected from ChEMBL document CHEMBL1134958.

Biological target: Tryptase (Homo sapiens, UniProt Q9BZJ3+Q15661+Q9NRR2)
Test: Inhibitory concentration against human tryptase
We label by threshold. Values of IC50 strictly beneath 60 nM are satisfied. Values of 60 nM and up are not satisfied.

INSERT INTO assay_data (compound, answer_label) VALUES
  ('CN(CCCCc1ccccc1)C(=O)N1CCN(C(=O)N2C(=O)[C@H](CC3CCCN(C(=N)N)C3)[C@H]2C(=O)O)CC1 (some centres undefined)', 'satisfied'),
  ('CC(C)C(OC(=O)N1CCN(C(=O)N2C(=O)[C@H](CC3CCCN(C(=N)N)C3)[C@H]2C(=O)O)CC1)C(C)C (single isomer, unassigned)', 'not satisfied'),
  ('N=C(N)N1CCCC(C[C@H]2C(=O)N(C(=O)N3CCN(C(=O)CCCCCc4ccccc4)CC3)[C@@H]2C(=O)O)C1 (some centres undefined)', 'satisfied'),
  ('N=C(N)N1CCCC(C[C@H]2C(=O)N(C(=O)N3CCN(C(=O)NCCCCc4ccccc4)CC3)[C@@H]2C(=O)O)C1 (some centres undefined)', 'satisfied'),
  ('CC(C)C(OC(=O)N1CCN(C(=O)N2C(=O)[C@H](CC3CN(C(=N)N)C3)[C@H]2C(=O)O)CC1)C(C)C', 'satisfied');

I wonder whether N=C(N)N1CCCC(C[C@H]2C(=O)N(C(=O)N3CCN(C(=O)OCCCOc4ccccc4)CC3)[C@@H]2C(=O)O)C1 (some centres undefined) has IC50 below 60 nM. Can you tell?
satisfied

I wonder whether CC(C)C(OC(=O)N1CCN(C(=O)N2C(=O)[C@H](CC3CCCN(C(=N)N)C3)[C@H]2C(=O)O)CC1)C(C)C (stereo in doubt; form 1) has IC50 below 60 nM. Can you tell?
not satisfied

I wonder whether `N=C(N)NCCC[C@H]1C(=O)N(C(=O)N2CCN(C(=O)CCCCCc3ccccc3)CC2)[C@@H]1C(=O)O` has IC50 below 60 nM. Can you tell?
satisfied

I wonder whether `N=C(N)N1CCC[C@@H](C[C@H]2C(=O)N(C(=O)N3CCN(C(=O)CCCCCc4ccccc4)CC3)[C@@H]2C(=O)O)C1` has IC50 below 60 nM. Can you tell?
satisfied

I wonder whether N=C(N)N1CCCC(C[C@H]2C(=O)N(C(=O)N3CCN(C(=O)CCCCCC4CCCCC4)CC3)[C@@H]2C(=O)O)C1 (some centres undefined) has IC50 below 60 nM. Can you tell?
satisfied

I wonder whether `N=C(N)N1CCC[C@H](C[C@H]2C(=O)N(C(=O)N3CCN(C(=O)CCCCCc4ccccc4)CC3)[C@@H]2C(=O)O)C1` has IC50 below 60 nM. Can you tell?
satisfied

I wonder whether N=C(N)N1CCCC(C[C@H]2C(=O)N(C(=O)N3CCN(C(=O)CCCCCc4ccccn4)CC3)[C@@H]2C(=O)O)C1 (some centres undefined) has IC50 below 60 nM. Can you tell?
satisfied

I wonder whether `CC(C)C(OC(=O)N1CCN(C(=O)N2C(=O)[C@H](CCCN=C(N)N)[C@H]2C(=O)O)CC1)C(C)C` has IC50 below 60 nM. Can you tell?
satisfied

I wonder whether CC(C)C(OC(=O)N1CCN(C(=O)N2C(=O)[C@H](CC3CCCN(C(=N)N)C3)[C@H]2C(=O)O)CC1)C(C)C (stereo in doubt; form 2) has IC50 below 60 nM. Can you tell?
not satisfied
